- Tested on: AP-1 induced transcriptional activity
- Method Notes: Cellular Transrepressional Assay (AP-1 luciferase reporter in A549 cell, PMA activated)
- Assay type: cell-based
- Run Conditions: Homo sapiens, A549, 7 h, maximum inhibition, pAP-1-Luc, PMA, read-out: AP-1 Max % inh (Cellular Transrepression Assay)
Recorded Emax values for a group of molecules are listed next.
Recorded Endpoint: Emax (%)

> print(dat)
                                    molecule                        subject.of.test  recorded.endpoint  unit.descriptor  readout.number
 1  CC(C)Cc1ccc(-c2ccc(C(c3ccccc3)C(C)(C)C(=O)Nc3nncs3)cn2)cc1 (stereo not shown)  AP-1 induced transcriptional activity               Emax                %            46.8
 2  CCCc1ccc(-c2ccc(C(c3ccccc3)C(C)(C)C(=O)Nc3nncs3)cn2)cc1 (stereo not shown)  AP-1 induced transcriptional activity               Emax                %            39.4
 3  CCN(CC)C(=O)c1ccc(-c2ccc([C@H](c3cccc(F)c3)C(C)(C)C(=O)Nc3nncs3)s2)cc1Cl  AP-1 induced transcriptional activity               Emax                %              23
 4  CCN(C)C(=O)c1ccc(-c2ccc([C@@H](c3cccc(F)c3)[C@@H](C)C(=O)Nc3nnc(C)s3)s2)cc1  AP-1 induced transcriptional activity               Emax                %              46
 5  CC(C)Cc1ccc(-c2ccc(C(c3cccc(F)c3)C(C)(C)C(=O)Nc3nncs3)s2)cc1 (stereo not shown)  AP-1 induced transcriptional activity               Emax                %            44.2
 6  CCN(C)C(=O)c1ccc(-c2ccc(C(c3cccc(F)c3)C(C)C(=O)Nc3nncs3)s2)cc1 (single isomer, unassigned)  AP-1 induced transcriptional activity               Emax                %            55.3
 7  CC(C)(C(=O)Nc1nncs1)C(c1ccccc1)c1ccc(N2CCOCC2)nc1 (stereo not shown) [Example 13]  AP-1 induced transcriptional activity               Emax                %            42.2
 8  CC(C)(C(=O)Nc1nncs1)C(c1ccccc1)c1ccc(-c2ccc(C(=O)N3CCOCC3)c(Cl)c2)s1 (stereo not shown)  AP-1 induced transcriptional activity               Emax                %            38.5
 9  CC(C)(C(=O)Nc1nc(Cc2ccc(-c3ccncc3)cc2)cs1)C(c1ccccc1)c1ccncc1 (stereo not shown)  AP-1 induced transcriptional activity               Emax                %            89.9
10  CC(C)(C(=O)Nc1nccs1)C(c1ccccc1)c1ccc(N2CCOCC2)nc1 (single isomer, unassigned) [Example 21]  AP-1 induced transcriptional activity               Emax                %            23.9
11  CC(C(=O)Nc1nncs1)C(c1ccccc1)c1ccc(-c2ccc(C(=O)N(C)C)c(Cl)c2)s1 (single isomer, unassigned)  AP-1 induced transcriptional activity               Emax                %            51.5
12  C[C@@H](C(=O)Nc1nncs1)[C@H](c1cccc(F)c1)c1ccc(-c2ccc(C(=O)N3CCC(F)(F)C3)cc2)s1  AP-1 induced transcriptional activity               Emax                %            28.7
13  CCN(C)C(=O)c1ccc(-c2ccc([C@H](c3cccc(F)c3)C(C)(C)C(=O)Nc3nncs3)s2)cc1  AP-1 induced transcriptional activity               Emax                %            49.4
14  COc1ccc(-c2ccc(C(c3ccccc3)C(C)(C)C(=O)Nc3nccs3)cn2)cc1 (stereo not shown)  AP-1 induced transcriptional activity               Emax                %            41.4
15  CCN(C)C(=O)c1ccc(-c2ccc(C(c3ccccc3)C(C)(C)C(=O)Nc3nncs3)s2)cc1 (stereo not shown)  AP-1 induced transcriptional activity               Emax                %            39.6
16  CC(C)(C(=O)Nc1nncs1)[C@@H](c1cccc(F)c1)c1ccc(-c2ccc(C(=O)N3CCOCC3)cc2)s1  AP-1 induced transcriptional activity               Emax                %            53.8
17  CCN(C)C(=O)c1ccc(-c2ccc(C(c3ccccc3)C(C)C(=O)Nc3nncs3)s2)cc1 (single isomer, unassigned)  AP-1 induced transcriptional activity               Emax                %            57.2
18  CC(C(=O)Nc1nncs1)C(c1ccccc1)c1ccc(-c2ccc(C(=O)N(C)C)cc2)s1 (single isomer, unassigned)  AP-1 induced transcriptional activity               Emax                %            59.1
19  CC(C(=O)Nc1nncs1)C(c1cccc(F)c1)c1ccc(-c2ccc(C(=O)N(C)C)c(Cl)c2)s1 (single isomer, unassigned)  AP-1 induced transcriptional activity               Emax                %            49.5

====

- Subject Of Test: human glucocorticoid receptor (Homo sapiens)
- Construct: purified human recombinant full-length glucocorticoid receptor (2 nM); purchased Invitrogen Part #2893
- Sequence (P04150 1-777): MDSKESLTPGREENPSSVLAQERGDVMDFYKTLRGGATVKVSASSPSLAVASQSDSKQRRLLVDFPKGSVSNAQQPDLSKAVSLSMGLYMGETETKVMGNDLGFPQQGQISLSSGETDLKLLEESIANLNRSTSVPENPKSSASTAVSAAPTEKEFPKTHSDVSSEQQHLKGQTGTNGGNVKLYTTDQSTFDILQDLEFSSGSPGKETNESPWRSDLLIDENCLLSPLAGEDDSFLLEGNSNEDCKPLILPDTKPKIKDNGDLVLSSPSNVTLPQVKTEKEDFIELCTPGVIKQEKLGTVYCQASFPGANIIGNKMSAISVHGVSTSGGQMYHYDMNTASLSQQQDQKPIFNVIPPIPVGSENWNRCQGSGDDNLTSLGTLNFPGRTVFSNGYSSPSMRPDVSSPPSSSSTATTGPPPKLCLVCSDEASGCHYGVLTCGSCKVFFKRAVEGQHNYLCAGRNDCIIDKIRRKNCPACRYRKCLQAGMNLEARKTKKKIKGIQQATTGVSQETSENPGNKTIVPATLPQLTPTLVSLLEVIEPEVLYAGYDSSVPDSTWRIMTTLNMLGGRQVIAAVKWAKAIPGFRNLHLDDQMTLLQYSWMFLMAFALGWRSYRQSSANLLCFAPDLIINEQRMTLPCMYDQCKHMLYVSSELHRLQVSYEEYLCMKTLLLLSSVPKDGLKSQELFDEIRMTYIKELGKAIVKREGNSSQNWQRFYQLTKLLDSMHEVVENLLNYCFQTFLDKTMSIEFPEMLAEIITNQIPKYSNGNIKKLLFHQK
- Method Notes: Glucocorticoid Receptor Binding Assay (I), fluorescence polarization competitor kit
- Run Conditions: purified human recombinant full-length GR, Fluormone GS Red
I'd appreciate it if you could label each record using Ki and these ranges: 1: < 4 nM; 2: ≥ 4 nM and < 20 nM; 3: ≥ 20 nM

> print(dat)
                                    compound  assigned.class
 1  C[C@H](C(=O)Nc1nncs1)[C@@H](c1cccc(F)c1)c1ccc(-c2ccc(C(=O)N3CCOCC3)cc2)s1               2
 2  CC(C)(C(=O)Nc1nncs1)C(c1cccc(F)c1)c1ccc(N2CCOCC2)s1 (centres unmarked)               3
 3  CC(C)(C)NC(=O)c1ccc(-c2ccc([C@H](c3cccc(F)c3)C(C)(C)C(=O)Nc3nncs3)s2)cc1               3
 4  CCCN(CCC)C(=O)c1ccc(-c2ccc(C(c3ccccc3)C(C)(C)C(=O)Nc3nncs3)s2)cc1 (centres unmarked)               3
 5  C[C@@H](C(=O)Nc1nncs1)[C@H](c1cccc(F)c1)c1ccc(Br)s1               1
 6  CCN(C)C(=O)c1ccc(-c2ccc([C@@H](c3cccc(F)c3)C(C)(C)C(=O)Nc3nncs3)s2)cc1               3
 7  C[C@H](C(=O)Nc1nncs1)[C@@H](c1ccccc1)c1ccc(-c2ccc(C(=O)N(C)C)cc2)s1               2
 8  CCN(C)C(=O)c1ccc(-c2ccc([C@H](c3cccc(F)c3)[C@H](C)C(=O)Nc3nncs3)s2)cc1               1
 9  C[C@H](C(=O)Nc1nncs1)[C@@H](c1cccc(F)c1)c1ccc(-c2ccc(C(=O)N3CCOCC3)c(Cl)c2)s1               2
10  CC(C)(C(=O)Nc1nncs1)[C@@H](c1cccc(F)c1)c1ccc(-c2ccc(C(=O)N3CCC3)cc2)s1               2
11  CC(C(=O)Nc1nncs1)C(c1ccccc1)c1ccc(Br)s1 (single isomer, unassigned) [Example 135]               1
12  C[C@@H](C(=O)Nc1nncs1)[C@@H](c1cccc(F)c1)c1ccc(-c2ccc(C(=O)N3CCOCC3)c(Cl)c2)s1               3
13  CC(C(=O)Nc1nncs1)C(c1ccccc1)c1ccc(Br)s1 (single isomer, unassigned) [Example 134]               1
14  CC(C)(C(=O)Nc1nncs1)C(c1ccccc1)c1ccc(-c2ccc(C(=O)N3CCCCC3)cc2)s1 (centres unmarked)               2
